measured-target: PmSiaT (Proteus mirabilis)
Construct: made in house
Sequence (B4EZY7 whole entry): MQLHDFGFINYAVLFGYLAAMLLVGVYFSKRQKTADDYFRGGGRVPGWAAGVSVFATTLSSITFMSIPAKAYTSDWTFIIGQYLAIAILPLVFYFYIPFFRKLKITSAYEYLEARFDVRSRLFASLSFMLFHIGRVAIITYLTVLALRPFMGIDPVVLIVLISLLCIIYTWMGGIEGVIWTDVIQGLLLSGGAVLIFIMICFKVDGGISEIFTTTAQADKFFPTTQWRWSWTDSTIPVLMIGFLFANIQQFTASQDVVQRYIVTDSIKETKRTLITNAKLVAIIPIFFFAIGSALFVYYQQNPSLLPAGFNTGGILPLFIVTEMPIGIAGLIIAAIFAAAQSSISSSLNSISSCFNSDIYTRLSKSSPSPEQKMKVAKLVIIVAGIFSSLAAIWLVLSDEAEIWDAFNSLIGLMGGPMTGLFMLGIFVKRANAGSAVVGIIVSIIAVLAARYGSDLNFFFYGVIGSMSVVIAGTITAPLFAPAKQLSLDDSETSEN
measurement-description: nanoDSF thermal shift assay, PmSiaT
Type: binding
test-conditions: PmSiaT Tm, average of experiment 2
Parameter threshold = 50 °C. Response is condition met when Average 2 meets or exceeds it, else condition not met.

{"compound": "CC(=O)N[C@H]1[C@H]([C@H](O)[C@H](O)CO)OC(C(=O)O)=C[C@@H]1O [Compound 9, reference compound]", "measured-target": "PmSiaT (Proteus mirabilis)", "class-assignment": "condition not met"}
{"compound": "CC(=O)NC1C(OCc2ccccc2)CC(O)(C(=O)O)OC1C(O)C(O)CO (stereo not drawn)", "measured-target": "PmSiaT (Proteus mirabilis)", "class-assignment": "condition met"}
{"compound": "CC(C)C(=O)NC1C(O)CC(O)(C(=O)O)OC1C(O)C(O)CO (stereo not drawn)", "measured-target": "PmSiaT (Proteus mirabilis)", "class-assignment": "condition not met"}
{"compound": "CC(=O)NC1C(OCc2ccc(C#N)cc2)CC(O)(C(=O)O)OC1C(O)C(O)CO (stereo not drawn)", "measured-target": "PmSiaT (Proteus mirabilis)", "class-assignment": "condition met"}
{"compound": "CC(=O)NC1C(O)CC(O)(C(=O)O)OC1C(O)C(O)CCl (stereo not drawn)", "measured-target": "PmSiaT (Proteus mirabilis)", "class-assignment": "condition not met"}

Exercise: Answer whether Average 2 of CCC(=O)NC1C(O)CC(O)(C(=O)O)OC1C(O)C(O)CO (stereo not drawn) is greater than or equal to 50 °C.
Solution: condition not met

Exercise: Answer whether Average 2 of CC(=O)NC1C(O)CC(O)(C(=O)O)OC1C(O)C(C)O (stereo not drawn) is greater than or equal to 50 °C.
Solution: condition not met

Exercise: Answer whether Average 2 of O=C(CO)N[C@H]1[C@H]([C@H](O)[C@H](O)CO)OC(O)(C(=O)O)C[C@@H]1O (stereo partly drawn) [Neu5Gc, 5-N-glycolyl neuraminic acid, reference compound] is greater than or equal to 50 °C.
Solution: condition not met

---

measured-target: SaSiaT (Staphylococcus aureus, UniProt A0A0H2XJ46)
Sequence (A0A0H2XJ46 entry or part of it): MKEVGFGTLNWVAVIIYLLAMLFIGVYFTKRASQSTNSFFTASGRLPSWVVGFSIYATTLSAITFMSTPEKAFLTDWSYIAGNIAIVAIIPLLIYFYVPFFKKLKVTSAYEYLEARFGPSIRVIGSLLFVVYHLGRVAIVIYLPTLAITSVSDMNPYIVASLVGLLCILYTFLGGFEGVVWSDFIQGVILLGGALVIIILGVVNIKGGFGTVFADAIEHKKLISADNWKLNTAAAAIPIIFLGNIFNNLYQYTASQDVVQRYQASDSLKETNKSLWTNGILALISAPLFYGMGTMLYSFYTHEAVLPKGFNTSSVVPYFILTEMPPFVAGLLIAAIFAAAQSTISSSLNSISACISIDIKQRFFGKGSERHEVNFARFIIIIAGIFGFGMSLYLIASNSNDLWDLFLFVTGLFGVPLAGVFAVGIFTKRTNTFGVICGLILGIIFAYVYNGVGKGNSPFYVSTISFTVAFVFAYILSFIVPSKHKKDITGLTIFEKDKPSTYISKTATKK
measurement-description: nanoDSF thermal shift assay, SaSiaT
Format: binding
test-conditions: SaSiaT, experiment 2, first capillary, 1.25 mM
In this section, each of the compounds is paired with its reported Tm2.
The reply should contain only the number, in °C.

Sample answers from the record:
{"compound": "CC(=O)NC1C(OCc2cc(F)cc(F)c2)CC(O)(C(=O)O)OC1C(O)C(O)CO (centres unmarked) [Compound 3e]", "Tm2 / °C": 56.6}
{"compound": "CC(C)C(=O)NC1C(O)CC(O)(C(=O)O)OC1C(O)C(O)CO (centres unmarked) [Compound 6b]", "Tm2 / °C": 44.6}
{"compound": "[N-]=[N+]=NCC(=O)N[C@H]1[C@H]([C@H](O)[C@H](O)CO)O[C@@](O)(C(=O)O)C[C@@H]1O [Compound 6h, reference compound]", "Tm2 / °C": 52.7}

The compound O=C(CF)NC1C(O)CC(O)(C(=O)O)OC1C(O)C(O)CO (centres unmarked) [Compound 6f] showed Tm2 equal to 51.2

The compound CC(=O)NC1C(O)CC(O)(C(=O)O)OC1C(O)C(O)CCl (centres unmarked) [Compound 8c] showed Tm2 equal to 49.5
